- measured.target: Pro-Link-tagged Human GLP-1R (human) (UniProt P43220)
- Sequence (P43220 24-463): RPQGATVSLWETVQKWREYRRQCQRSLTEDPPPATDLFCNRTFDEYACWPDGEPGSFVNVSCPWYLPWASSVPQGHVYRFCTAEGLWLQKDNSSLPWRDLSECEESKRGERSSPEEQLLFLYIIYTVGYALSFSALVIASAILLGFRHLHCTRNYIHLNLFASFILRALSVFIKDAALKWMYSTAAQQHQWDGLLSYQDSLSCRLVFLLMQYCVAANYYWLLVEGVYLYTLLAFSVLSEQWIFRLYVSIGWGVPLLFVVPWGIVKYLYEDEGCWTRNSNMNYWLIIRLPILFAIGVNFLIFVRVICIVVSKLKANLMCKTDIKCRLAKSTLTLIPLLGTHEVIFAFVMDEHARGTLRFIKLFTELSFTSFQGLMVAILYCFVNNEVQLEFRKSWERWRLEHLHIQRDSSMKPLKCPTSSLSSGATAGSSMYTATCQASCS
- method.notes: cell-based or functional assay
Starred links: 1 amine or outer side, 2 acyl side, 3 side chain; linkers in the order of their positions; H or OH if unused. Non-standard residues stand in square brackets, D forms with d. Groups on a side chain read outwards from the residue. No end group written: not given here. *: point of attachment. C20 diacid = O=C(O)CCCCCCCCCCCCCCCCCCC(=O)*; γGlu = O=C(O)[C@H](CCC(=O)[*:2])N[*:1]; NMeY = CN[C@@H](Cc1ccc(O)cc1)C(=O)O; αMeF = C[C@](N)(Cc1ccccc1)C(=O)O; αMeL = CC(C)C[C@](C)(N)C(=O)O; AEEA = NCCOCCOCC(=O)O; Aib = CC(C)(N)C(=O)O
attribute.measured: hGLP1R β-arrestin Rel EC50

>>> obs_value("Y[Aib]QGTFTSDYSI[αMeL]LDKQAAKQFVEWLLA[Aib]GPSSGEPPPSEG (not fully specified (residue 20)) [Example 329]")
"6.11 nM"
>>> obs_value("[NMeY][Aib]QGT[αMeF]TSDYSSLLDKIAAK([AEEA-AEEA-γGlu-C20 diacid])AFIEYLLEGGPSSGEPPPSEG-NH2 [Example 297]")
"60.2 nM"
>>> obs_value("YXQGTFTSDFSKXLDKKAQXAFIEYLLAGGPSSGEPPPSEG (synthetic construct; SITE 2: note = 2-Aminoisobutyric Acid; SITE 13: note = alpha-methyl-leucine; SITE 17: note = Lysine is chemically modified through conjugation of the epsilon-amino group of the Lysine side chain with (2-[2-(2-Amino-ethoxy)-ethoxy]-acetyl)-(gamma-Glu)-CO-(CH2) 18-CO2H; SITE 20: n) [Example 1]")
"> 10000 nM"
>>> obs_value("[NMeY][Aib]QGT[αMeF]TSDYSILLDKIAAK([AEEA-AEEA-γGlu-C20 diacid])AFVQWLIAGGPSSGEPPPSEG-NH2 [Example 300]")
"15.7 nM"
>>> obs_value("YXQGTFTSDFSKXLDKKAQXAFIEYLLAGGPSSGEPPPSEE (synthetic construct; SITE 2: note = 2-Aminoisobutyric Acid; SITE 13: note = alpha-methyl-leucine; SITE 17: note = Lysine is chemically modified through conjugation of the epsilon-amino group of the Lysine side chain with (2-[2-(2-Amino-ethoxy)-ethoxy]-acetyl)-(gamma-Glu)-CO-(CH2) 18-CO2H; SITE 20: n) [Example 4]")
"23.2 nM"
